FYI, the data here is from patent US9556160B2.

tested on: VAP-1 enzyme (SSAO) activity in rat plasma; assay: Inhibitory effect on rat VAP-1 enzyme (SSAO) activity in rat plasma after oral administration; format: in vivo, Wistar male rats; conditions: rat plasma VAP-1 activity, oral 0.3 mg/kg, 3 h after administration
So basically: Inhibition Ratio (%) 3 h at 70% or higher? That is MET. Lower than 70%? That is NOT MET.

structure.notation	answer.label
COCc1ccc(OC2CN(c3cccc(COC(=O)NC(=N)N)c3F)C2)cn1	NOT MET
CCS(=O)(=O)N1CCN(c2cccc(COC(=O)NC(=N)N)c2F)CC1	MET
CS(=O)(=O)N1CCC(C2CN(c3cccc(COC(=O)NC(=N)N)c3F)C2)CC1	MET
N=C(N)NC(=O)OCc1cccc(N2CCN(c3cccnc3)C(=O)C2)c1F	NOT MET
N=C(N)NC(=O)NCc1cccc(-c2cnc(N3CCOCC3)nc2)c1	NOT MET
N=C(N)NC(=O)OCc1cccc(-c2cnc(N3CCN(c4ccc(CCC(=O)O)cc4)CC3)nc2)c1F	MET
CCC(=O)N1CCC(OC2CN(c3cccc(COC(=O)NC(=N)N)c3F)C2)CC1	NOT MET
CCC(=O)N1CCC(C2CN(c3cccc(COC(=O)NC(=N)N)c3F)C2)CC1	MET
